system: Enterobacteria phage lambda; assay: Induction of Lambda phage supercoiled circular pBluescript KS II DNA cleavage assessed as single-stranded nick formation at 100 uM preincubated for 30 mins followed by UV light irradiation under aerobic condition measured after 15 mins by agarose gel electrophoresis
Activity listing for selected compounds.

# CHEMICAL STRING, Activity (%)
data = [
    ("O=C(O/N=C/c1ccncc1)c1ccc([N+](=O)[O-])cc1", 87),
    ("N/C(=N\\OC(=O)c1ccc([N+](=O)[O-])cc1)c1ccncc1", 75),
    ("COc1ccc(C(=O)O/N=C(\\N)c2cccnc2)cc1", 0),
    ("COc1ccc(C(=O)O/N=C/c2cccnc2)cc1", 0),
    ("O=C(O/N=C/c1cccnc1)c1ccc([N+](=O)[O-])cc1", 84),
]
